This collection of values is drawn from patent US20250332173A1.

Tested on: HTT mRNA
Experiment: RT-qPCR splicing assay, HTT canonical junction (CJ) and alternative junction (AJ) mRNA
Format: cell-based, human
Details: Homo sapiens, decrease in HTT canonical junction (CJ) mRNA, RT-qPCR; read-out: HTT CJ IC50
measured.attribute: IC50

>>> print(df.to_string())
                                    compound  measured_attribute  recorded_result
 0  C[C@@H]1C[C@H](n2ccc3nc(-c4cc5cn(C)nc5cc4O)ncc3c2=O)CCN1                IC50       1 to 10 µM
 1  COC(=O)c1cc(-c2ccc3c(=O)n(C4CCNCC4)ccc3c2)nn2cc(C)nc12                IC50       1 to 10 µM
 2  Cc1cn2nc(-c3ccc4c(c3)CCN(C3CCNCC3)C4=O)nc2c(C)n1                IC50       1 to 10 µM
 3  Cc1c(O)c(-c2ncc3c(=O)n([C@@H]4CCN[C@H](C)C4)ccc3n2)cc2cn(C)nc12                IC50       1 to 10 µM
 4  Cc1cc(-c2ccc3c(=O)n(C4CCN(C)CC4)cnc3n2)cc2cn(C)nc12                IC50          > 10 µM
 5  Cn1cc2cc(-c3cc(F)c4c(=O)n(C5CCNC6(CC6)C5)ccc4c3)cc(F)c2n1 (centres unmarked)                IC50         < 0.1 µM
 6  CN1CCC(n2cnc3cc(-c4cn[nH]c4)ccc3c2=O)CC1                IC50          > 10 µM
 7  Cc1cn2cc(-c3ccc4c(=O)n(C5CCNCC5)cnc4c3)cc(F)c2n1                IC50      0.1 to 1 µM
 8  CNC12CCC(n3ccc4nc(-c5cc6cn(C)nc6c(C)c5O)ncc4c3=O)(CC1)C2                IC50       1 to 10 µM
 9  Cc1cn2nc(-c3ccc4c(=O)n(C5CCN(CCF)CC5)ncc4n3)cc(C)c2n1                IC50      0.1 to 1 µM
10  Cc1cn2nc(-c3ccc4nc(NC5CCNCC5)[nH]c(=O)c4c3)cc(C)c2n1                IC50          > 10 µM
11  Cc1cn2nc(-c3ccc4c(=O)n([C@@H]5CCNC6(CC6)C5)cnc4c3)cc(C)c2n1                IC50         < 0.1 µM
12  Cc1cn2nc(-c3cc(F)c4c(=O)n([C@@H]5CCNC6(CC6)C5)ncc4c3)cc(C)c2n1                IC50         < 0.1 µM
13  CN1CCN(c2ccc3c(=O)n(-c4ccc5nn(C)cc5c4)cnc3c2)CC1                IC50          > 10 µM
14  Cc1c(O)c(-c2ncc3c(=O)n([C@@H]4C[C@@H](C)N[C@@H](C)C4)ccc3n2)cc2cn(C)nc12                IC50          > 10 µM
15  Cc1cn2nc(-c3cc(C)c4c(=O)n(C5CCNCC5)cnc4c3)cc(C)c2n1                IC50         < 0.1 µM
16  Cc1cn2cc(-c3ccc4c(=O)n(C5CCNCC5)cnc4c3)ncc2n1                IC50       1 to 10 µM
17  Cc1cn2nc(-c3cc(F)c4c(=O)n(C5CCNCC5)cnc4c3)cc(C)c2n1                IC50         < 0.1 µM
18  Cn1cc2cc(-c3ncc4c(=O)n(C5CCNCC5)ccc4n3)c(O)cc2n1                IC50      0.1 to 1 µM
19  Cc1cn2cc(-c3cc(F)c4c(=O)n([C@H]5CNC[C@H]5C)ccc4c3)cc(F)c2n1                IC50          > 10 µM
20  Cc1c(O)c(-c2ncc3c(=O)n(C4CCNC4)ccc3n2)cc2cn(C)nc12 (stereo in doubt) [Compound 1440]                IC50          > 10 µM
21  Cc1cn2nc(-c3ccc4c(c3)CCN(C3CCNC3)C4=O)cc(C)c2n1 (centres unmarked)                IC50          > 10 µM
22  Cc1cn2cc(-c3ccc4c(=O)n(C56CCC(N)(CC5)C6)ccc4n3)cc(F)c2n1                IC50       1 to 10 µM
23  Cc1cn2cc(-c3ncc4c(=O)n([C@H]5CCN[C@@H](C)C5)ccc4n3)cc(F)c2n1                IC50      0.1 to 1 µM
24  Cc1cn2nc(-c3cc(C)c4c(=O)n(C5CCNC6(CC6)C5)ccc4c3)cc(C)c2n1 (stereo in doubt)                IC50         < 0.1 µM
25  Cc1cn2nc(-c3ccn4c(=O)c(C5CCNCC5)ccc4c3)cc(C)c2n1                IC50         < 0.1 µM
26  Cc1nc2c(F)cc(-c3ccc4c(c3)CCN(C3CCNCC3)C4=O)cc2o1                IC50       1 to 10 µM
27  Cc1c(O)c(-c2ncc3c(=O)n(C4CCNC4)ccc3n2)cc2cn(C)nc12 (centres unmarked) [Compound 1222]                IC50          > 10 µM
28  Cc1cn2nc(-c3ccc4c(c3)CCN(C3CCNCC3)C4=O)cc(C)c2n1                IC50       1 to 10 µM
29  Cc1cn2cc(-c3cc(F)c4c(=O)n(C5CCN(C)CC5)cnc4c3)cc(F)c2n1                IC50      0.1 to 1 µM
30  CN[C@H]1CC[C@@H](n2ccc3nc(-c4cc5cn(C)nc5c(C)c4O)ncc3c2=O)C1                IC50       1 to 10 µM
31  Cc1cn2cc(-c3cc(F)c4c(=O)n(C5CCNCC5)ccc4c3)cc(C#N)c2n1                IC50       1 to 10 µM
